All figures here come from ChEMBL document CHEMBL3860050.

tested.on: UniProt:P08183
Sequence (P08183 whole entry): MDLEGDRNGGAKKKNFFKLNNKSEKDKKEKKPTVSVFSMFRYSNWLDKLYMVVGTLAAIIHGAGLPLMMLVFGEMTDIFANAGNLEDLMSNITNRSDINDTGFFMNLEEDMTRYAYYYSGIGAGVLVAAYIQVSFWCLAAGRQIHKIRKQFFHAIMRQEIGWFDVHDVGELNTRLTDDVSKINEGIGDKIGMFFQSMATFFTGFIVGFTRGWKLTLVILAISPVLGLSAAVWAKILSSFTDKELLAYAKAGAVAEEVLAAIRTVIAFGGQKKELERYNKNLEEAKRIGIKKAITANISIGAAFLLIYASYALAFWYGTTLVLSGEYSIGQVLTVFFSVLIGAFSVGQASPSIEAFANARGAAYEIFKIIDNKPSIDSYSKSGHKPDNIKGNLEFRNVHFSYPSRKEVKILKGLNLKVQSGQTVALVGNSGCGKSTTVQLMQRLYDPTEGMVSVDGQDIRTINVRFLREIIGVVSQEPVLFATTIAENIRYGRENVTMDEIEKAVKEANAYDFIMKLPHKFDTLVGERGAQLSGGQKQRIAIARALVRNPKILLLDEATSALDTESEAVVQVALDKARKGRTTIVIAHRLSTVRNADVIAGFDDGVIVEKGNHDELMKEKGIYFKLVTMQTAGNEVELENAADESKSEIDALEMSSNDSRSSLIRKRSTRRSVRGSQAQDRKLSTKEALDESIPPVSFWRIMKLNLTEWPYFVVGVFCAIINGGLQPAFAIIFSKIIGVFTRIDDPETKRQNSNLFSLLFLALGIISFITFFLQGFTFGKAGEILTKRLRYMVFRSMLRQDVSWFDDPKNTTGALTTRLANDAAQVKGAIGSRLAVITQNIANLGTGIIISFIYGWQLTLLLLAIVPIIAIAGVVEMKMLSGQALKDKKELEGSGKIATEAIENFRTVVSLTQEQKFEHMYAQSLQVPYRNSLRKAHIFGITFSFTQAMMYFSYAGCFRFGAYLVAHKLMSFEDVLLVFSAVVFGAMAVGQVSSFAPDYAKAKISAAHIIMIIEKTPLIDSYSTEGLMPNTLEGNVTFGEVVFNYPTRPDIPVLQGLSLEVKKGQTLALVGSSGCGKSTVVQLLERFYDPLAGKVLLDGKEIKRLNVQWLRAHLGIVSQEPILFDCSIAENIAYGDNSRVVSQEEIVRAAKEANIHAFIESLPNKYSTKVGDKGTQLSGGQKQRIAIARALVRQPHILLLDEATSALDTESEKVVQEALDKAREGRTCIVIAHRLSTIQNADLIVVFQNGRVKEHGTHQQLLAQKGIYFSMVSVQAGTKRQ
measurement.protocol: Inhibition of MDR1-mediated efflux-pump activity in mouse L5178Y cells expressing human MDR1 assessed as forward scattered light at 20 uM preincubated for 10 mins followed by rhodamine-123 addition measured after 20 mins by flow cytometry (reference value: 455.7 to 509.9)
Type: cell-based
Classify as follows. Reported Activity greater than or equal to 500: t. Reported Activity below: f.

molecule	cat
CC(C)=C[C@H](O)C[C@@H](C)[C@H]1CC[C@@]2(C)[C@@H]3C=C[C@@]45OC[C@]3(CC[C@]12C)[C@@H]4CC[C@H](O)C5(C)C [KARAVILAGENIN E]	f
CO[C@H]1C=C2[C@@H](CC[C@H](O)C2(C)C)[C@]2(C)C[C@@H](O)[C@]3(C)[C@@H]([C@H](C)C/C=C/C(C)(C)O)CC[C@@]3(C)[C@H]12	t
COc1ccc(C(=O)O[C@@H](C=C(C)C)C[C@@H](C)[C@H]2CC[C@@]3(C)[C@@H]4[C@@H](OC)C=C5[C@@H](CC[C@H](O)C5(C)C)[C@]4(C)CC[C@]23C)cc1 [KARAVOATE M]	t
C=C(C)[C@@H](O)[C@H](O)C[C@@H](C)[C@H]1CC[C@@]2(C)[C@@H]3[C@@H](O)C=C4[C@@H](CC[C@H](O)[C@]4(C)CO)[C@]3(C)CC[C@]12C [BALSAMINAPENTAOL A]	f
CC(C)=C[C@H](O)C[C@@H](C)[C@H]1CC[C@@]2(C)[C@@H]3[C@@H](O)C=C4[C@@H](CC[C@H](O)[C@]4(C)CO)[C@]3(C)CC[C@]12C [BALSAMINOL A]	f
CO[C@H]1C=C2[C@@H](CC[C@H](O)C2(C)C)[C@]2(C)CC[C@]3(C)[C@@H]([C@H](C)C[C@H](C=C(C)C)O[C@@H]4O[C@H](CO)[C@@H](O)[C@H](O)[C@H]4O)CC[C@@]3(C)[C@H]12	f

Query string: Does the molecule CC(=O)O[C@H]1C=C2[C@@H](CC[C@H](OC(C)=O)C2(C)C)[C@]2(C)CC[C@]3(C)[C@@H]([C@H](C)C[C@H](C=C(C)C)OC(C)=O)CC[C@@]3(C)[C@H]12 [TRIACETYLBALSAMINOL F] have recorded Activity that is 500 or more?
Result string: t

Query string: Does the molecule CC(C)=C[C@H](O)C[C@@H](C)[C@H]1CC[C@@]2(C)[C@@H]3C(=O)C=C4[C@@H](CC[C@H](O)C4(C)C)[C@]3(C)CC[C@]12C [BALSAMINOL E] have recorded Activity that is 500 or more?
Result string: t
